System: HepG2 cells
PROCEDURE SUMMARY: Cytotoxicity in HepG2 cells (intracellular ATP, ATPlite, 48 h)
Type: cell-based, human
RECORDED CONDITIONS: HepG2 cells; IC50 per ratio column head; unit inferred
MEASURED PARAMETER: pIC50
Scale explanation: pIC50 corresponds to minus log10 of a concentration expressed in moles per litre.

Below, each entry is followed by its recorded pIC50 result.
MOLECULE: CC(C)(C)c1ccc(-c2cc3c(ccc4nc(N)nc(N)c43)[nH]2)cc1
RECORDED NUMBER: 5.49
//
MOLECULE: COc1c(CCNCCCCNCCc2cc(Cl)c3ccccc3c2OC)cc(Cl)c2ccccc12
RECORDED NUMBER: 5.47
//
MOLECULE: CN1CCCc2cc(NC(=O)C=Cc3ccc(-c4ccc(F)cc4F)o3)ccc2C1
RECORDED NUMBER: 4.87
//
MOLECULE: CC(C)CC(=O)N(Cc1ccc(-c2ccc(CNC3Cc4ccccc4C3)cc2)cc1)C1CCNCC1
RECORDED NUMBER: 5.21
//
MOLECULE: CCn1c(-c2nonc2N)nc2c(-c3cccc(NC(=O)Nc4ccccc4OC)c3)ncc(OCCCN)c21
RECORDED NUMBER: 5.23
//
MOLECULE: Nc1c2ccccc2nc2ccc(-c3ccccc3)cc12
RECORDED NUMBER: 5.48

# context switch: different molecule, same pIC50
Request: Given the molecule `CCc1c(CCNCCCCCCNC(C)(C)Cc2ccc3c(c2CC)OCO3)ccc(OC)c1OC` , what is its reported pIC50?
Response: 5.36

----------
Test system: HepG2 cells
PROCEDURE SUMMARY: Cytotoxicity in HepG2 cells (intracellular ATP, ATPlite, 48 h)
Assay type: cell-based, human
RECORDED CONDITIONS: HepG2 cells; IC50 per ratio column head; unit inferred
Listed next: entries and their corresponding IC50.
// units = µM; emit number, no label

Examples with their reported IC50 follow.
MOLECULE: O=C(NCCc1ccccc1)N(Cc1cccc(-c2ccc(CNC3CCCC3)cc2)c1)C1CCN(Cc2ccccc2)CC1
TARGET OF ASSAY: HepG2 cells
SCALE UNIT: µM
IC50: 7.42

MOLECULE: CN1CCN(CCCN(Cc2ccc(-c3ccc(CNC4CCCC4)cc3)cc2)C(=O)CCC2CCCC2)CC1
TARGET OF ASSAY: HepG2 cells
SCALE UNIT: µM
IC50: 6

MOLECULE: COc1cccc(OC)c1CN1CCC(N(C)CCCCCCCCN2CCC(OC(=O)Nc3ccccc3-c3ccccc3)CC2)CC1
TARGET OF ASSAY: HepG2 cells
SCALE UNIT: µM
IC50: 3.4

MOLECULE: O=S(=O)(NCCN1CCCC1)c1cccc(-c2ccc(CNCc3ccc(F)cc3)cc2)c1
TARGET OF ASSAY: HepG2 cells
SCALE UNIT: µM
IC50: 7.4

MOLECULE: Nc1cc(/C=C/c2ccc([N+](=O)[O-])s2)nc2ccccc12
TARGET OF ASSAY: HepG2 cells
SCALE UNIT: µM
IC50: 7.6

Request: For the molecule shown here, `COc1cc2ccccc2c(OC)c1CCNCCCCNCCc1c(OC)cc2ccccc2c1OC` , give the reported IC50.
Response: 3.2

Request: I'd like to know its IC50. The molecule in question is CC(Cc1ccc(C(=O)Nc2ccc(CC(C)NCCc3cccc(Cl)c3)cc2)cc1)NCCc1ccc(C(F)(F)F)cc1 (centres unmarked)
Response: 3.3

----------
Test system: HepG2 cells
PROCEDURE SUMMARY: Cytotoxicity in HepG2 cells (intracellular ATP, ATPlite, 48 h)
Type: cell-based, human
RECORDED CONDITIONS: HepG2 cells; IC50 per ratio column head; unit inferred
MEASURED PARAMETER: IC50

// below: answered compounds
SMILES DATA: CCc1[nH]nc(C(=O)NC2CCN(CC3(c4ccc(OC)cc4)CCCCC3)CC2)c1C
IC50: > 25 µM

SMILES DATA: CC(=O)c1ccc2nc[nH]c(=O)c2c1
IC50: < 1.56 µM

SMILES DATA: Fc1ccc(OC2CN(c3nccc(NCc4ccccc4Cl)n3)C2)cc1
IC50: > 25 µM

Moving on to the next compound.
Request: May I ask what IC50 has been recorded for `Cc1cccc(-c2nc(Nc3ccncc3)c3cc(N(C)C)ccc3n2)n1` ?
Response: > 25 µM
